testTarget: human recombinant HDAC6 (Homo sapiens, UniProt Q9UBN7)
Construct: purchased Calbiochem 382180
Sequence (Q9UBN7 whole entry): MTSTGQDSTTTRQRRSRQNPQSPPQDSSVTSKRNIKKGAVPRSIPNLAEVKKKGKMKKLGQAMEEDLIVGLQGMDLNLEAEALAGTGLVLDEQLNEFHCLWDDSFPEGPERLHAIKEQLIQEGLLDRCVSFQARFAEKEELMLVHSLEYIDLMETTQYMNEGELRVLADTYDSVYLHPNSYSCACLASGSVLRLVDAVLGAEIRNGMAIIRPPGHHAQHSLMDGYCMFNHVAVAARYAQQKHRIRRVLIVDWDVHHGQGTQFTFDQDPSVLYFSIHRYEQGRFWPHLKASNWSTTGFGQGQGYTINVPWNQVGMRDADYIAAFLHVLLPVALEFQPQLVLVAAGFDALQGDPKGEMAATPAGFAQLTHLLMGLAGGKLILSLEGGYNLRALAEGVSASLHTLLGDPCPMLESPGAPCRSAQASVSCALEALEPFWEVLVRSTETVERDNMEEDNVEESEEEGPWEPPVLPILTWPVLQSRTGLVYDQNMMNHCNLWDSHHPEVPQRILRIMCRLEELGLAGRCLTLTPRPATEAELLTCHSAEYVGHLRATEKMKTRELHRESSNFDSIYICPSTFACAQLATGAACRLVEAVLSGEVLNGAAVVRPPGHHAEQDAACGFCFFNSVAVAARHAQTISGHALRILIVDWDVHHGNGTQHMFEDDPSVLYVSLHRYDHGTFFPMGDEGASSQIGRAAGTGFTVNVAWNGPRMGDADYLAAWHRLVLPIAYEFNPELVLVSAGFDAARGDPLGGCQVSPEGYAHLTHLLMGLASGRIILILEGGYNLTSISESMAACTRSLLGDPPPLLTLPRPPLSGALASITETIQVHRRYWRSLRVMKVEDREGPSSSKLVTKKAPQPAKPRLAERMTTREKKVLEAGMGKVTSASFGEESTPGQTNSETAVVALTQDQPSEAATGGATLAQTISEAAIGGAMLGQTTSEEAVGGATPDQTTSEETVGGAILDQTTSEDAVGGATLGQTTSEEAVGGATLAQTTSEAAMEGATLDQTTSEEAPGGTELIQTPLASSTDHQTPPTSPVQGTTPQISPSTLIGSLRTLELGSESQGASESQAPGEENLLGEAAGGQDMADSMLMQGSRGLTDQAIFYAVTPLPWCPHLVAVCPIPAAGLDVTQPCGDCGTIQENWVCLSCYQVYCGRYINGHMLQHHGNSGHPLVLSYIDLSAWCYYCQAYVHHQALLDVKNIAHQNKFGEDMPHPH
testDetails: HDAC6 enzyme activity inhibition assay (HDAC Fluorimetric Drug Discovery Kit)
Assay type: biochemical
measurementContext: HDAC6 over HDAC1
measurementName: HDAC6 selectivity (fold)

Before answering, review these 2 worked examples.
O=C(N1CCOCC1)N(Cc1ccc(-c2nnc(C(F)F)o2)cc1F)C12CC3CC(CC(C3)C1)C2
21
O=C(N1CCS(=O)(=O)CC1)N(Cc1ccc(-c2nnc(C(F)F)o2)cc1F)c1ccc(CN2CCC(F)(F)C2)cc1
62

(1) O=C(N1CCS(=O)(=O)CC1)N(Cc1ccc(-c2nnc(C(F)(F)F)o2)cc1)c1ccc(F)cc1F
(2) CCN1CCN(C(=O)N(Cc2ccc(-c3nnc(C(F)F)o3)cn2)c2ccccc2)CC1
**Q:** Which record shows the lower HDAC6 selectivity (fold): the first, 1 , or the second, 2 ? Pick one; state its label.
**A:** 1
(1: 172 fold, 2: 347 fold)

---

testTarget: human recombinant HDAC6 (Homo sapiens, UniProt Q9UBN7)
Construct: purchased Calbiochem 382180
testDetails: HDAC6 enzyme activity inhibition assay (HDAC Fluorimetric Drug Discovery Kit)
Assay type: biochemical
measurementContext: HDAC6 over HDAC1
measurementName: HDAC6 selectivity (fold)

O=C(N1CCN(C2COC2)CC1)N(Cc1ccc(-c2nnc(C(F)F)o2)cc1F)c1ccc(F)cc1 [Compound 21940]
118

(1) O=C(N1CCS(=O)(=O)CC1)N(Cc1ccc(-c2nnc(C(F)F)o2)cc1F)c1ccc(CN2CCC(F)(F)CC2)cc1 [Compound 21916]
(2) CCN1CCN(C(=O)N(Cc2ccc(-c3nnc(C(F)F)o3)cc2F)c2ccc(C)c(Cl)c2)CC1 [Compound 21657]
(3) O=C(N1CCS(=O)(=O)CC1)N(Cc1ccc(-c2nnc(C(F)(F)F)o2)cc1Cl)c1ccccc1 [Compound 21410]
(4) O=C(NCCN(Cc1ccccc1)Cc1ccccc1)N(Cc1ccc(-c2nnc(C(F)F)o2)cc1F)c1ccccc1 [Compound 22017]
**Q:** Arrange the 4 compounds by rising HDAC6 selectivity (fold), starting with the smallest. Return value: ordered labels per request.
**A:** 4, 3, 1, 2
(4: 7 fold, 3: 12 fold, 1: 43 fold, 2: 226 fold)

---

testTarget: human recombinant HDAC6 (Homo sapiens, UniProt Q9UBN7)
Construct: purchased Calbiochem 382180
testDetails: HDAC6 enzyme activity inhibition assay (HDAC Fluorimetric Drug Discovery Kit)
Format: biochemical
measurementContext: human recombinant HDAC6, same protocol as HDAC1; read-out: HDAC6
pIC50: −log10 of the molar value.
measurementName: pIC50

O=C(N1CCN(C2COC2)CC1)N(Cc1ccc(-c2nnc(C(F)F)o2)cn1)c1ccc(Cl)cc1
7.05

(A) CN(C)[C@@H]1CCN(C(=O)N(Cc2ccc(-c3nnc(C(F)(F)F)o3)cc2F)c2cccc(Cl)c2F)C1
(B) COc1cccc(N(Cc2ccc(-c3nnc(C(F)F)o3)cc2)C(=O)N2CCS(=O)(=O)CC2)c1
(C) CCNC(=O)N(Cc1ccc(-c2nnc(C(F)(F)F)o2)cc1)c1ccccc1
(D) O=C(N1CCOCC1)N(Cc1ccc(-c2nnc(C(F)F)o2)cn1)c1ccc(Cl)cc1
**Q:** Please list the entries, largest pIC50 first. Please write the labels in the order that was asked for.
**A:** D, B, A, C

(A) O=C(NCCN1CCCC1)N(Cc1ccc(-c2nnc(C(F)F)o2)cc1F)c1ccccc1
(B) O=C(N1CCS(=O)(=O)CC1)N(Cc1ccc(-c2nnc(C(F)(F)F)o2)cc1)c1ccccc1F
(C) CC(C)(O)CN1CCN(C(=O)N(Cc2ccc(-c3nnc(C(F)(F)F)o3)cc2)c2ccccc2)CC1
**Q:** Sort the 3 compounds by pIC50; largest first, smallest last. Please respond with the labels ordered as the question requires.
**A:** B, A, C
(B: 7.29, A: 6.78, C: 6.53)

(P) CCN1CCN(C(=O)N(Cc2ccc(-c3nnc(C(F)(F)F)o3)cc2F)c2ccc(F)cc2)CC1
(Q) CCN1CCN(C(=O)N(Cc2ccc(-c3nnc(C(F)F)o3)cn2)c2cccc(OC)c2)CC1
(R) Cc1ccc(N(Cc2ccc(-c3nnc(C(F)(F)F)o3)cc2)C(=O)N2CCS(=O)(=O)CC2)cc1
**Q:** Could you please order the items by pIC50, going from the lowest number to the highest? Write the labels out in the order the request specifies.
**A:** R, P, Q
(R: 6.52, P: 6.86, Q: 7.24)
